target.entity: SpHof1-2
method: SPOT peptide array binding signal intensity (averaged, normalized) (arbitrary units (background-subtracted, floor 0; scale differs between SH3 domains)); higher = stronger binding of the SH3 domain to the peptide
recorded.metric: SPOT peptide array binding signal intensity

>>> obs_value("GDHPKGPPPPPPPPD")
"≤ 0"
>>> obs_value("SAPDIPPRSPNRNAH")
"≤ 0"
>>> obs_value("ATNVPVAPPPPPASL")
"≤ 0"

Each recorded value in this set is attributed to the supplement of paper PMC4466140.
